- Tested on: human non small cell lung cancer (NCI-H460)
- experiment_summary: Inhibition of tumour cell proliferation in vitro ([3H]thymidine incorporation), NCI-H460
- Format: cell-based
- condition_details: NCI-H460, 24 hours
Below, each of the compounds is paired with its reported IC50 value.
Kindly provide the numeric value in nM only, without the unit symbol.

Worked set:
{"columns": ["structure_as_smiles", "tgt", "value_units", "IC50"],
 "data": [
  ["N#CN=C(NCCCCCCCCCCCCNC(=NC#N)Nc1ccncc1)Nc1ccncc1", "human non small cell lung cancer (NCI-H460)", "nM", 69],
  ["N#CN=C(NCCCCCCCCCCCCNC(=NC#N)Nc1cccnc1)Nc1cccnc1", "human non small cell lung cancer (NCI-H460)", "nM", 65]
]}

Please turn your attention to the following entry.
Result for N#CN=C(NCCCCCCCCCCNC(=NC#N)Nc1ccncc1)Nc1ccncc1 , tested on human non small cell lung cancer (NCI-H460), IC50: 65

* * *

# pIC50 annotations
- Test system: human small cell lung carcinoma (NYH)
- experiment_summary: Inhibition of tumour cell proliferation in vitro ([3H]thymidine incorporation), NYH
- Assay type: cell-based
- condition_details: 24 hours
Interpret pIC50 as the negative base-10 log of the concentration measured in mol/L.

{"columns": ["molecule", "pIC50"],
 "data": [
  ["N#CN=C(NCCCCCCCCCCCCNC(=NC#N)Nc1ccncc1)Nc1ccncc1 [Example No. 14]", 9.30],
  ["N#CN=C(NCCCCCCCCCCCCNC(=NC#N)Nc1cccnc1)Nc1cccnc1 [Example No. 6]", 8.36]
]}

For the next question, use this molecule.
Sure, the documented pIC50 for N#CN=C(NCCCCCCCCCCNC(=NC#N)Nc1ccncc1)Nc1ccncc1 [Example No. 8] is 9.04
